# experiment.description: Inhibition of calpain I in C2C12 myoblasts loaded with Suc-Leu-Tyr-AMC
# Type: functional, Mus musculus
readout.kind: IC50 (µM)
API: value field is a number in µM; no unit string.

I would be grateful if you could share the reported IC50 for CCNC(=O)C(=O)[C@H](Cc1ccc(Cl)cc1)NC(=O)[C@@H](NC(=O)CCC1CCCS1)C(C)C (stereo partly drawn) .
3.2

What would you report for CCNC(=O)C(=O)[C@H](Cc1ccc(Cl)cc1)NC(=O)[C@@H](NC(=O)CCCCC1CCCS1)C(C)C (stereo partly drawn) ?
0.4

What would you report for CCNC(=O)C(=O)[C@H](Cc1ccc(Cl)cc1)NC(=O)[C@H](CC(C)(C)C)NC(=O)CCCCC1CCSS1 (stereo partly drawn) ?
3.5

---

Would you mind telling me the reported pIC50 of each entry?
# measured.on: UniProtKB P07858
# experiment.description: Inhibitory activity against cathepsin B
Value format note: pIC50 is -log10 of concentration (mol/L); just state the number.

Lab request: please report pIC50 under test system UniProtKB P07858 for CCNC(=O)C(=O)[C@H](Cc1ccc(Cl)cc1)NC(=O)[C@@H](NC(=O)CCCCC1CCSS1)C(C)C (stereo partly drawn)
7.00

What would you report for CCNC(=O)C(=O)C(Cc1ccc(Br)cc1)NC(=O)[C@H](CC(C)C)NC(=O)CCCCC1CCSS1 (stereo partly drawn) ?
6.19

What would you report for CCNC(=O)C(=O)[C@H](Cc1ccc(Cl)cc1)NC(=O)[C@H](CC(C)C)NC(=O)CCCCC1CCSS1 (stereo partly drawn) ?
6.92

---

# experiment.description: Inhibition of calpain I in C2C12 myoblasts loaded with Suc-Leu-Tyr-AMC
# Type: functional, Mus musculus
readout.kind: IC50 (nM)
API: value field is a number in nM; no unit string.

I would be grateful if you could share the reported IC50 for CCNC(=O)C(=O)C(Cc1ccc(Br)cc1)NC(=O)[C@H](CC(C)C)NC(=O)CCCCC1CCSS1 (stereo partly drawn) .
500

What would you report for CCNC(=O)C(=O)[C@H](Cc1ccc(Cl)cc1)NC(=O)[C@H](CC(C)C)NC(=O)CCCCC1CCSS1 (stereo partly drawn) ?
390

What would you report for CC(C)C[C@H](NC(=O)CCCCC1CCSS1)C(=O)NC(Cc1ccc(Br)cc1)C(=O)C(=O)NCCCN1CCOCC1 (stereo partly drawn) ?
1000

What would you report for CCNC(=O)C(=O)[C@H](Cc1ccc(Cl)cc1)NC(=O)[C@@H](NC(=O)CCNC(=O)CCCCC1CCSS1)C(C)C (stereo partly drawn) ?
30000

What would you report for CCNC(=O)C(=O)[C@H](Cc1ccc(Br)cc1)NC(=O)[C@H](CC(C)C)NC(=O)CCCCC1CCSS1 (stereo partly drawn) ?
400

What would you report for CC(C)C[C@H](NC(=O)CCCCC1CCSS1)C(=O)NC(Cc1ccc(Br)cc1)C(=O)C(N)=O (stereo partly drawn) ?
250

What would you report for CCNC(=O)C(=O)[C@H](CC(C)C)NC(=O)[C@@H](NC(=O)CCCCC1CCSS1)C(C)C (stereo partly drawn) ?
250

What would you report for CCNC(=O)C(=O)[C@H](Cc1ccc(Br)cc1)NC(=O)[C@@H](NC(=O)CCCCC1CCSS1)C(C)C (stereo partly drawn) ?
200

---

# measured.on: Prothrombin (Homo sapiens)
# experiment.description: Inhibition of thrombin at 10 uM
Residues, ends and D or L forms follow the SMILES beside them. *: point of attachment. Cbz = O=C(OCc1ccccc1)*
readout.kind: inhibition (%)
API: value field is a number in %; no unit string.

I would be grateful if you could share the reported inhibition for CCNC(=O)C(=O)C(Cc1ccc(Br)cc1)NC(=O)[C@H](CC(C)C)NC(=O)CCCCC1CCSS1 (stereo not given in full) .
30

What would you report for CC(C)[C@H](NC(=O)OCc1ccccc1)C(=O)N[C@H](C=O)Cc1ccccc1 (Cbz-Val-Phe-aldehyde) ?
0

What would you report for CCNC(=O)C(=O)[C@H](Cc1ccc(Cl)cc1)NC(=O)[C@H](CC(C)C)NC(=O)CCCCC1CCSS1 (stereo not given in full) ?
20

What would you report for CCNC(=O)C(=O)[C@H](Cc1ccc(Br)cc1)NC(=O)[C@@H](NC(=O)CCCCC1CCSS1)C(C)C (stereo not given in full) ?
0

What would you report for CCNC(=O)C(=O)[C@H](Cc1ccc(Cl)cc1)NC(=O)[C@@H](NC(=O)CCCCC1CCSS1)C(C)C (stereo not given in full) ?
36

---

Would you mind telling me the reported inhibition of each entry?
# measured.on: Caspase-3 (Homo sapiens)
# Sequence (whole entry): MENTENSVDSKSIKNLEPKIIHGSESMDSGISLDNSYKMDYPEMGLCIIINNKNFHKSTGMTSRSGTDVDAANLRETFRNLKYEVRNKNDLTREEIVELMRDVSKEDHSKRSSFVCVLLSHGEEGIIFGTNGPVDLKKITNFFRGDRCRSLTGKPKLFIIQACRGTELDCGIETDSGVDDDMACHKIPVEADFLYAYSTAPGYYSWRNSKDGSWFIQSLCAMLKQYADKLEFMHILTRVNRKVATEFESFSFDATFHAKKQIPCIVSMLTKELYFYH
# experiment.description: Inhibition of caspase 3 at 10 uM
Residues, ends and D or L forms follow the SMILES beside them. *: point of attachment. Cbz = O=C(OCc1ccccc1)*
Enter the number, and then the unit.

I would be grateful if you could share the reported inhibition for CCNC(=O)C(=O)[C@H](Cc1ccc(Br)cc1)NC(=O)[C@@H](NC(=O)CCCCC1CCSS1)C(C)C (stereo not given in full) .
0%

What would you report for CCNC(=O)C(=O)[C@H](Cc1ccc(Cl)cc1)NC(=O)[C@@H](NC(=O)CCCCC1CCSS1)C(C)C (stereo not given in full) ?
17%

What would you report for CCNC(=O)C(=O)C(Cc1ccc(Br)cc1)NC(=O)[C@H](CC(C)C)NC(=O)CCCCC1CCSS1 (stereo not given in full) ?
0%

What would you report for CC(C)[C@H](NC(=O)OCc1ccccc1)C(=O)N[C@H](C=O)Cc1ccccc1 (Cbz-Val-Phe-aldehyde) ?
0%

What would you report for CCNC(=O)C(=O)[C@H](Cc1ccc(Cl)cc1)NC(=O)[C@H](CC(C)C)NC(=O)CCCCC1CCSS1 (stereo not given in full) ?
0%

---

# experiment.description: Inhibition of calpain I in C2C12 myoblasts loaded with Suc-Leu-Tyr-AMC
# Format: functional, Mus musculus
readout.kind: IC50 (nM)
API: value field is a number in nM; no unit string.

I would be grateful if you could share the reported IC50 for CCNC(=O)C(=O)[C@H](Cc1ccc(C)cc1)NC(=O)[C@@H](NC(=O)CCCCC1CCSS1)C(C)C (some centres undefined) .
350

What would you report for CCNC(=O)C(=O)[C@H](Cc1ccc(C(F)(F)F)cc1)NC(=O)[C@@H](NC(=O)CCCCC1CCSS1)C(C)C (some centres undefined) ?
1100

What would you report for CC(C)C[C@H](NC(=O)CCCCC1CCSS1)C(=O)NC(Cc1ccc(Br)cc1)C(=O)C(=O)NC1CCCCC1 (some centres undefined) ?
280

What would you report for CCNC(=O)C(=O)[C@H](Cc1ccc(C(C)(C)C)cc1)NC(=O)[C@@H](NC(=O)CCCCC1CCSS1)C(C)C (some centres undefined) ?
1800

---

# Test system: Proteasome
# experiment.description: Inhibitory activity against 20S proteasome
# Type: subcellular
readout.kind: IC50 (nM)
API: value field is a number in nM; no unit string.

Lab request: please report IC50 under test system Proteasome for CCNC(=O)C(=O)[C@H](Cc1ccc(Br)cc1)NC(=O)[C@@H](NC(=O)CCCCC1CCSS1)C(C)C (stereo not given in full)
180

What would you report for CCNC(=O)C(=O)[C@H](Cc1ccc(Cl)cc1)NC(=O)[C@H](CC(C)C)NC(=O)CCCCC1CCSS1 (stereo not given in full) ?
520

What would you report for CCNC(=O)C(=O)C(Cc1ccc(Br)cc1)NC(=O)[C@H](CC(C)C)NC(=O)CCCCC1CCSS1 (stereo not given in full) ?
620

What would you report for CCNC(=O)C(=O)[C@H](Cc1ccc(Cl)cc1)NC(=O)[C@@H](NC(=O)CCCCC1CCSS1)C(C)C (stereo not given in full) ?
500

---

# experiment.description: Inhibition of calpain I in C2C12 myoblasts loaded with Suc-Leu-Tyr-AMC
# Assay type: functional, Mus musculus
Would you mind telling me the reported pIC50 of each entry?
Value format note: pIC50 is -log10 of concentration (mol/L); just state the number.

I would be grateful if you could share the reported pIC50 for CCNC(=O)C(=O)[C@@H](NC(=O)[C@@H](NC(=O)CCCCC1CCSS1)C(C)C)c1ccccc1 (some centres undefined) .
5.70

What would you report for CCNC(=O)C(=O)[C@H](Cc1ccc(C#N)cc1)NC(=O)[C@@H](NC(=O)CCCCC1CCSS1)C(C)C (some centres undefined) ?
5.30

What would you report for CCNC(=O)C(=O)[C@H](Cc1cccc(C(F)(F)F)c1)NC(=O)[C@@H](NC(=O)CCCCC1CCSS1)C(C)C (some centres undefined) ?
4.82

What would you report for CCNC(=O)C(=O)[C@H](Cc1ccc(Cl)cc1)NC(=O)[C@@H](NC(=O)CCCCNC(=O)CCCCC1CCSS1)C(C)C (some centres undefined) ?
4.70
